Hey, just so you know, these numbers are from patent US20080311122A1.

# Study target: T1, HMG1 purified from bovine (calf) thymus (bovine, UniProt P10103 2-215)
# T1 construct: also called Calf thymus HMGB1; thymus HMG1
# T1 sequence (looked up): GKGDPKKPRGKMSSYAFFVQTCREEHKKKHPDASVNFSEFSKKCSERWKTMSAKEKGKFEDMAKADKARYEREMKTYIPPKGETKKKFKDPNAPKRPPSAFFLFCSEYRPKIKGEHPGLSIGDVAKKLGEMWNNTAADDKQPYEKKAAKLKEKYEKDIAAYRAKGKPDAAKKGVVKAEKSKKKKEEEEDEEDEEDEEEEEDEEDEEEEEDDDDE
# Assay remarks: ELISA, wells coated with calf thymus HMGB1 at 5 ug/mL, antibody at 10 ug/mL, anti-human kappa/lambda-HRP, OD 490
Endpoint label: binding result

{"columns": ["Binder", "Reported measurement"],
 "data": [
  ["anti-HMG1 antibody S14 (antibody, V domains shown) VH: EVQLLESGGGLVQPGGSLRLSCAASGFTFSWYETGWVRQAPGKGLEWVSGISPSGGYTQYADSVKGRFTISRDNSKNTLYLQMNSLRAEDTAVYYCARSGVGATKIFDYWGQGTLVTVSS VL: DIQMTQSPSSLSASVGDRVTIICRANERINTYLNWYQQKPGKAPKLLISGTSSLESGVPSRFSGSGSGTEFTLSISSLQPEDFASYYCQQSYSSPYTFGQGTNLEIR", "binds"],
  ["anti-HMG1 antibody E11 (antibody, V domains shown) VH: EVQLLESGGGLVQPGGSLRLSCAASGFTFSRYQMNWVRQAPGKGLEWVSSISPSGGHTHYADSVKGRFTISRDNSKNTLYLQMNSLRAEDTAVYYCAKDGRQGKISTVDHWGQGTLVTVSS VL: DIQMTQSPGTLSLSPGERATLSCRASQSVRSNFLAWYQQKPGQAPRLLIYGASRRASGIPDRFSGSGFGADFTLSISRLEPEDFAVYYCQQYGSSPNTFGQGSRVEIK", "binds"]
]}
